The reported numbers originate from the kinase profiling compilation of Christmann-Franck et al. (2016).

target: STK24 (human) (UniProt Q9Y6E0); assay: radiometric filter-binding kinase assay; settings: compound 1.0 µM
Sequence (Q9Y6E0 whole entry, looked up): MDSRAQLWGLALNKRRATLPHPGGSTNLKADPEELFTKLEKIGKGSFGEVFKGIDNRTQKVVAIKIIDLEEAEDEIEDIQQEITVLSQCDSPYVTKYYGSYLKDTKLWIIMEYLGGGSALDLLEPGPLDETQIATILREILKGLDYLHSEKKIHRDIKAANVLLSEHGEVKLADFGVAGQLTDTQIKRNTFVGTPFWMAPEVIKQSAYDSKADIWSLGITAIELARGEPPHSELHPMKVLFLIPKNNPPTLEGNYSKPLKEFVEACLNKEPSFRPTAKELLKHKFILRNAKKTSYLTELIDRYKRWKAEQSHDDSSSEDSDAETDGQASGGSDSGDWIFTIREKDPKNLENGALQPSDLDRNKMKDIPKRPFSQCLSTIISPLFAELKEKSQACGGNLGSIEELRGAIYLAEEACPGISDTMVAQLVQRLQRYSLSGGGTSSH
reported.endpoint: residual activity (%)

>  <compound>
Cc1cc(NC(=O)c2cccc(NC(=O)/C=C/CN(C)C)c2)ccc1Nc1nccc(-c2cccnc2)n1

>  <reported.endpoint>
residual activity

>  <uom>
%

>  <recorded.number>
82

$$$$

P. COc1cc(C(=O)N2CCOCC2)c(F)cc1Nc1ncc(C(F)(F)F)c(NC2CC2)n1
Q. CNC(=O)C1[C@H]2O[C@@](C)([C@@H]1N)n1c3ccccc3c3c4c(c5c6ccccc6n2c5c31)C(=O)NC4 (some centres undefined)
Hi, I'm comparing P with Q and wondering which one has the bigger number for residual activity. Any idea? Record your answer as the label of the chosen record.
P
(P: 96%, Q: 6%)
